system: Rattus norvegicus; assay: Antiamnesic activity against scopolamine-induced memory loss in Wistar rat assessed as time taken to reach shock free zone at 0.1 mg/kg, ip measured for 15 mins by passive avoidance step-down task test; type: functional; parameters: unit not given beside the values; settings: route intraperitoneal

Compound	Tested on	Activity
CCCCCCN1C(=O)CSC1C1=CCCN(C)C1 (stereo not drawn)	Rattus norvegicus	7
CN1CCC=C(C2SCC(=O)N2Cc2ccccc2)C1 (stereo not drawn)	Rattus norvegicus	7
CN1CCC=C(C2SCC(=O)N2c2ccc(Br)cc2)C1 (stereo not drawn)	Rattus norvegicus	7
